test: AUC (0 to 24 hrs) in adult human at 70 mg, iv dosed once daily measured on day 3 to 14 post dose; format: ADME, organism-based; set-up: dose 70 mg, time < 24 hr, route intravenous; settings: plasma

chem_smiles | AUC at 24 h (µg·h/mL)
CC[C@H](C)C[C@H](C)CCCCCCCCC(=O)N[C@H]1C[C@@H](O)[C@@H](NCCN)NC(=O)[C@@H]2[C@@H](O)CCN2C(=O)[C@H]([C@H](O)CCN)NC(=O)[C@H]([C@H](O)[C@@H](O)c2ccc(O)cc2)NC(=O)[C@@H]2C[C@@H](O)CN2C(=O)[C@H]([C@@H](C)O)NC1=O | 154

* * *

assay: AUC (0 to 24 hrs) in 12 […] old infants/toddlers measured on day 4 post dose; type: ADME, organism-based; design: time < 24 hr; conditions: human, plasma
measurement_name: AUC at 24 h (µg·h/mL)

chem_smiles | measurement_name | unit_tag | assay_value
CC[C@H](C)C[C@H](C)CCCCCCCCC(=O)N[C@H]1C[C@@H](O)[C@@H](NCCN)NC(=O)[C@@H]2[C@@H](O)CCN2C(=O)[C@H]([C@H](O)CCN)NC(=O)[C@H]([C@H](O)[C@@H](O)c2ccc(O)cc2)NC(=O)[C@@H]2C[C@@H](O)CN2C(=O)[C@H]([C@@H](C)O)NC1=O | AUC at 24 h | µg·h/mL | 122

* * *

test: AUC (0 to 24 hrs) in infants/toddlers measured on day 4 post dose; conditions: human, plasma

compound | AUC at 24 h [µg·h/mL]
CC[C@H](C)C[C@H](C)CCCCCCCCC(=O)N[C@H]1C[C@@H](O)[C@@H](NCCN)NC(=O)[C@@H]2[C@@H](O)CCN2C(=O)[C@H]([C@H](O)CCN)NC(=O)[C@H]([C@H](O)[C@@H](O)c2ccc(O)cc2)NC(=O)[C@@H]2C[C@@H](O)CN2C(=O)[C@H]([C@@H](C)O)NC1=O [CASPOFUNGIN] | 171

* * *

experiment: Cmax in plasma of 12-17 years old adolescents at 50 mg/m'2, iv dosed once daily measured on day 4 post dose; format: ADME, organism-based; set-up: route intravenous; details: human

chem_smiles | Cmax (ng/mL)
CC[C@H](C)C[C@H](C)CCCCCCCCC(=O)N[C@H]1C[C@@H](O)[C@@H](NCCN)NC(=O)[C@@H]2[C@@H](O)CCN2C(=O)[C@H]([C@H](O)CCN)NC(=O)[C@H]([C@H](O)[C@@H](O)c2ccc(O)cc2)NC(=O)[C@@H]2C[C@@H](O)CN2C(=O)[C@H]([C@@H](C)O)NC1=O | 12900

* * *

experiment: Cmax in plasma of in 12 […] old infants/toddlers measured on day 1 post dose; assay type: ADME, organism-based; conditions: human

molecule | Cmax [ng/mL]
CC[C@H](C)C[C@H](C)CCCCCCCCC(=O)N[C@H]1C[C@@H](O)[C@@H](NCCN)NC(=O)[C@@H]2[C@@H](O)CCN2C(=O)[C@H]([C@H](O)CCN)NC(=O)[C@H]([C@H](O)[C@@H](O)c2ccc(O)cc2)NC(=O)[C@@H]2C[C@@H](O)CN2C(=O)[C@H]([C@@H](C)O)NC1=O [CASPOFUNGIN] | 17500

* * *

assay: AUC (0 to 24 hrs) in 10 […] old infants/toddlers measured on day 4 post dose; type: ADME, organism-based; parameters: time < 24 hr; details: human, plasma

chem_smiles | AUC at 24 h / µg·h/mL
CC[C@H](C)C[C@H](C)CCCCCCCCC(=O)N[C@H]1C[C@@H](O)[C@@H](NCCN)NC(=O)[C@@H]2[C@@H](O)CCN2C(=O)[C@H]([C@H](O)CCN)NC(=O)[C@H]([C@H](O)[C@@H](O)c2ccc(O)cc2)NC(=O)[C@@H]2C[C@@H](O)CN2C(=O)[C@H]([C@@H](C)O)NC1=O | 114

* * *

test: Cmax in plasma of in 10 years old infants/toddlers measured on day 4 post dose; assay type: ADME, organism-based; details: human
measurement_name: Cmax (ng/mL)

molecule | measurement_name | assay_value
CC[C@H](C)C[C@H](C)CCCCCCCCC(=O)N[C@H]1C[C@@H](O)[C@@H](NCCN)NC(=O)[C@@H]2[C@@H](O)CCN2C(=O)[C@H]([C@H](O)CCN)NC(=O)[C@H]([C@H](O)[C@@H](O)c2ccc(O)cc2)NC(=O)[C@@H]2C[C@@H](O)CN2C(=O)[C@H]([C@@H](C)O)NC1=O [CASPOFUNGIN] | Cmax | 15200

* * *

test: Cmax in plasma of in 17 […] old infants/toddlers measured on day 1 post dose; format: ADME, organism-based; conditions: human
measurement_name: Cmax (ng/mL)

chem_smiles | assay_value
CC[C@H](C)C[C@H](C)CCCCCCCCC(=O)N[C@H]1C[C@@H](O)[C@@H](NCCN)NC(=O)[C@@H]2[C@@H](O)CCN2C(=O)[C@H]([C@H](O)CCN)NC(=O)[C@H]([C@H](O)[C@@H](O)c2ccc(O)cc2)NC(=O)[C@@H]2C[C@@H](O)CN2C(=O)[C@H]([C@@H](C)O)NC1=O | 13900

* * *

assay: Cmax in plasma of adult human at 70 mg, iv dosed once daily measured on day 1 post dose; type: ADME, organism-based; set-up: dose 70 mg, route intravenous

chem_smiles | unit_tag | Cmax
CC[C@H](C)C[C@H](C)CCCCCCCCC(=O)N[C@H]1C[C@@H](O)[C@@H](NCCN)NC(=O)[C@@H]2[C@@H](O)CCN2C(=O)[C@H]([C@H](O)CCN)NC(=O)[C@H]([C@H](O)[C@@H](O)c2ccc(O)cc2)NC(=O)[C@@H]2C[C@@H](O)CN2C(=O)[C@H]([C@@H](C)O)NC1=O | ng/mL | 10000

* * *

assay: Cmax in plasma of in 3 to 24 months old infants/toddlers measured on day 4 post dose; details: human

compound | Cmax [ng/mL]
CC[C@H](C)C[C@H](C)CCCCCCCCC(=O)N[C@H]1C[C@@H](O)[C@@H](NCCN)NC(=O)[C@@H]2[C@@H](O)CCN2C(=O)[C@H]([C@H](O)CCN)NC(=O)[C@H]([C@H](O)[C@@H](O)c2ccc(O)cc2)NC(=O)[C@@H]2C[C@@H](O)CN2C(=O)[C@H]([C@@H](C)O)NC1=O [CASPOFUNGIN] | 16900

* * *

assay: Cmax in plasma of adult human at 50 mg, iv dosed once daily measured on day 3 to 14 post dose; format: ADME, organism-based; design: dose 50 mg, route intravenous
measurement_name: Cmax (ng/mL)

chem_smiles | assay_value
CC[C@H](C)C[C@H](C)CCCCCCCCC(=O)N[C@H]1C[C@@H](O)[C@@H](NCCN)NC(=O)[C@@H]2[C@@H](O)CCN2C(=O)[C@H]([C@H](O)CCN)NC(=O)[C@H]([C@H](O)[C@@H](O)c2ccc(O)cc2)NC(=O)[C@@H]2C[C@@H](O)CN2C(=O)[C@H]([C@@H](C)O)NC1=O | 9390

* * *

test: Cmax in plasma of in 20 […] old infants/toddlers measured on day 4 post dose; format: ADME, organism-based; conditions: human

chem_smiles | Cmax
CC[C@H](C)C[C@H](C)CCCCCCCCC(=O)N[C@H]1C[C@@H](O)[C@@H](NCCN)NC(=O)[C@@H]2[C@@H](O)CCN2C(=O)[C@H]([C@H](O)CCN)NC(=O)[C@H]([C@H](O)[C@@H](O)c2ccc(O)cc2)NC(=O)[C@@H]2C[C@@H](O)CN2C(=O)[C@H]([C@@H](C)O)NC1=O | 12100 ng/mL

* * *

experiment: Cmax in plasma of adult human at 70 mg, iv dosed once daily measured on day 3 to 14 post dose; format: ADME, organism-based; set-up: dose 70 mg, route intravenous

molecule | unit_tag | Cmax
CC[C@H](C)C[C@H](C)CCCCCCCCC(=O)N[C@H]1C[C@@H](O)[C@@H](NCCN)NC(=O)[C@@H]2[C@@H](O)CCN2C(=O)[C@H]([C@H](O)CCN)NC(=O)[C@H]([C@H](O)[C@@H](O)c2ccc(O)cc2)NC(=O)[C@@H]2C[C@@H](O)CN2C(=O)[C@H]([C@@H](C)O)NC1=O [CASPOFUNGIN] | ng/mL | 13300

* * *

experiment: Cmax in plasma of 12-17 years old adolescents at 50 mg/m'2, iv dosed once daily measured on day 1 post dose; type: ADME, organism-based; design: route intravenous; conditions: human
measurement_name: Cmax (ng/mL)

chem_smiles | assay_value
CC[C@H](C)C[C@H](C)CCCCCCCCC(=O)N[C@H]1C[C@@H](O)[C@@H](NCCN)NC(=O)[C@@H]2[C@@H](O)CCN2C(=O)[C@H]([C@H](O)CCN)NC(=O)[C@H]([C@H](O)[C@@H](O)c2ccc(O)cc2)NC(=O)[C@@H]2C[C@@H](O)CN2C(=O)[C@H]([C@@H](C)O)NC1=O | 8950
